Value source: PubChem BioAssay (NCI)

# System: U251 CNS
# assay-procedure: NCI tumour cell line growth inhibition, 48 h
Entries annotated with measured TGI

molecule	experimental-value
CC1CC[C@]2(C(=O)O)CCC3(C)C(=CCC4[C@@]5(C)CC[C@H](OS(=O)(=O)c6ccccc6)C(C)(C)C5CC[C@]43C)[C@@H]2[C@H]1C (stereo partly drawn)	> 100 µM
CC(C)(C)C1CC[C@H](O)[C@H]([C@H](O)CC2CC(=O)N(c3ccccc3)C(=O)C2)C1 (stereo partly drawn)	> 100 µM
CC1(C)CC[C@]2(C(N)=O)CC[C@]3(C)C(=CC[C@@H]4[C@@]5(C)C/C(=C/c6ccncc6)C(=O)C(C)(C)[C@@H]5CC[C@]43C)[C@@H]2C1	3.27 µM
COc1ccc(C2CCc3cc4c(cc3/C2=N/OC(C)=O)OCO4)cc1OC (stereo not drawn)	> 100 µM
Cc1cc(Cl)ccc1NS(=O)(=O)c1ccc(-c2cnc(C3CC3)o2)cc1	15.7 µM
CCOC(=O)[C@H]1Nc2ccccc2C2c3ccccc3CC21 (stereo partly drawn)	> 100 µM

Tell me the measured TGI of COC(=O)/C(=N/NC(N)=O)C(C(=O)OC)C(=O)C(=O)Nc1ccc(Cl)cc1 (stereo not drawn) , please.
> 100 µM

Requested field: TGI. Item: `COc1cc([N+](=O)[O-])c2ncccc2c1[N+](=O)[O-]`
16.6 µM

Please look up its TGI: COc1ccc(-c2cc(C(O)C3CCCCN3)c3ccccc3n2)cc1 (stereo not drawn)
14.5 µM

Name the reported TGI value associated with the molecule `Cc1[nH]c(=O)[nH]c(=S)c1C(=O)Nc1cccc2cc3ccccc3cc12`
> 100 µM

====

For UACC-257 melanoma, measured GI50 is reported for the entries below.

Examples with answers:
compound	experimental-value
CSC1=NCC2(S1)c1ccccc1N(C(=O)OC(C)(C)C)C2N1CCCCC1 (stereo not given)	> 100 µM
COc1cccc(C2NC(=S)NC(C)=C2C(=O)Nc2ccc(Cl)c(Cl)c2)c1 (stereo not given)	12.4 µM
Cc1cc(Cl)ccc1Nc1nc(C(F)(F)F)ccc1C(=O)N1CCN(c2cccc(Cl)c2)CC1	> 100 µM
C=[CH][Sn]([CH]=C)([O]c1cccc2cccnc12)[O]c1cccc2cccnc12	2.36 µM

Now take the following compound into account.
Could you share which GI50 value was measured for `Nc1ccc(S(=O)(=O)Nc2cnc3c(Cl)cccc3n2)cc1` ?
> 89.3 µM

====

# Tested on: PC-3 prostate
# assay-procedure: NCI tumour cell line growth inhibition, 48 h
outcome-measure: TGI

compound	TGI
O=C(NCCCCCCCNC(=O)OCc1ccc2c(Cl)cc(Cl)c(O)c2n1)OCc1ccc2c(Cl)cc(Cl)c(O)c2n1	2.16 µM
COC(=O)c1c(-c2ccc(Cl)cc2)cc2c3ccccc3n(C)c2c1C(=O)OC	> 100 µM
CCN(CC)CCN(C(=O)C(C)(C)C)c1ccccc1N	> 100 µM
CC1(C)CC[C@]2(C(N)=O)CC[C@]3(C)C(=CC[C@@H]4[C@@]5(C)C/C(=C/c6ccncc6)C(=O)C(C)(C)[C@@H]5CC[C@]43C)[C@@H]2C1	3.51 µM
NC(=O)Cc1nc2c(=O)[nH]cnc2n1C1OC(CO)C(O)C1O (stereo not given)	> 100 µM

Can you look up the measured TGI of `O=C(NNCc1ccc(Cl)cc1)Nc1cccc2ccccc12` for me?
> 100 µM

Given Cc1cc(C(O)CN(C)C)cc2c1ccc1cc(C(C)C)ccc12 (stereo not given) , state its recorded TGI.
5.77 µM
